biological target: growth factor receptors; experiment: cell-based or functional assay
Parameter: p-Smad1/5/8 (%)

[[record]]
binder = "ASAAPSSAPTALSATSVLYY [GFR-binding compound of SEQ ID NO: 82]"
parameter = "p-Smad1/5/8 (%)"
numeric_readout = 41

[[record]]
binder = "SIPKASSVPQELEPLPIVYY [GFR-binding compound of SEQ ID NO: 76]"
parameter = "p-Smad1/5/8 (%)"
numeric_readout = 54

[[record]]
binder = "GIPEPSSTPTKMSPINMLYF [GFR-binding compound of SEQ ID NO: 94]"
parameter = "p-Smad1/5/8 (%)"
numeric_readout = 39

